assay: Acceleration test of plasma samples with stabilizers (30° C. for 1.5 days, against control plasma stored at −95° C. to −65° C.), LC-MS/MS Area/IS Area; details: plasma at a high concentration level, plasma containing 200 μg/mL of the component, control plasma 0.624
reported-property: Ratio (Area/IS Area) E

Answered cases to consult:
QUERY: What does the record list as Ratio (Area/IS Area) E for `N[C@@H](CCC(=O)N[C@@H](CS)C(=O)NCC(=O)O)C(=O)O` ?
RESULT: 0

QUERY: What does the record list as Ratio (Area/IS Area) E for O=C(O)CN(CCN(CC(=O)O)CC(=O)O)CC(=O)O.[Na].[Na] [disodium EDTA, disodium ethylenediaminetetraacetic acid] ?
RESULT: 0

(P) O=C1O[C@H]([C@@H](O)CO)C(O)=C1O
(Q) O=S([O-])S(=O)(=O)[O-].[Na+].[Na+] [sodium pyrosulfite]
QUERY: Pick one, P or Q : lowest reported Ratio (Area/IS Area) E. I would appreciate it if you answered with the label of your choice.
RESULT: Q
(Q: 0, P: 0.048)

----------
assay: Acceleration test of plasma samples with stabilizers (30° C. for 1.5 days, against control plasma stored at −95° C. to −65° C.), LC-MS/MS Area/IS Area; conditions: plasma at a high concentration level, plasma containing 50 μg/mL of the component, control plasma 1.522
reported-property: Ratio (Area/IS Area) NE

QUERY: What does the record list as Ratio (Area/IS Area) NE for O=S([O-])S(=O)(=O)[O-].[Na+].[Na+] [sodium pyrosulfite] ?
RESULT: 0

QUERY: What does the record list as Ratio (Area/IS Area) NE for O=C1O[C@H]([C@@H](O)CO)C(O)=C1O [ascorbic acid] ?
RESULT: 0

QUERY: What does the record list as Ratio (Area/IS Area) NE for O=C(O)CN(CCN(CC(=O)O)CC(=O)O)CC(=O)O.[Na].[Na] [disodium EDTA, disodium ethylenediaminetetraacetic acid] ?
RESULT: 0

QUERY: What does the record list as Ratio (Area/IS Area) NE for N[C@@H](CCC(=O)N[C@@H](CS)C(=O)NCC(=O)O)C(=O)O [glutathione] ?
RESULT: 0

----------
experiment: Stabilizing effect of accelerated stabilizers (37° C., 14 days) on standard products and quality control products then accelerated at 30° C. for 2 days; format: physicochemical; details: High concentration level; control; average
reported-property: average concentration, Control (pg/mL)

Answered cases to consult:
QUERY: What does the record list as average concentration, Control for COc1cc(C(O)CN)ccc1O (centres unmarked) ?
RESULT: 1983.21

QUERY: What does the record list as average concentration, Control for `COc1cc(CCN)ccc1O` ?
RESULT: 1038.58

QUERY: What does the record list as average concentration, Control for CNCC(O)c1ccc(O)c(OC)c1 (centres unmarked) ?
RESULT: 978.42

(P) NC[C@H](O)c1ccc(O)c(O)c1
(Q) NCCc1ccc(O)c(O)c1
QUERY: Pick one, P or Q : lowest reported average concentration, Control. I would appreciate it if you answered with the label of your choice.
RESULT: Q
(Q: 1481.12 pg/mL, P: 4982.23 pg/mL)
